- assay_method_text: NCI Yeast Anticancer Drug Screen. Data for the mlh1 rad18 strain (AID 175)
- condition_notes: S. cerevisiae mlh1 rad18 strain growth inhibition; at 5.0 µM (retest, dose inferred, filed as 0.5); stronger effect = higher value
Compounds without any hit were thinned out: in the full panel of roughly 79,000, 15% have a hit. Where a SMILES comes first, the peptide text is derived from it. The star is where a group is joined. Cbz = O=C(OCc1ccccc1)*; Boc = CC(C)(C)OC(=O)*; OSu = O=C1CCC(=O)N1O*; Bn = c1ccc(C*)cc1

| molecule | growth inhibition [%] |
| --- | --- |
| CNC(=S)N(C)C(=S)Nn1c(=O)c(C)nn(C)c1=S | -27 |
| O=S(=O)(Nc1ccccc1)c1ccccc1C(O)(c1ccccc1)c1ccccc1 | -21 |
| CCOC(=O)c1ccc(O)c(C=O)c1 | -83 |
| C/C(=N\NC(=S)NCCCNC(=S)N/N=C(\C)c1ccccn1)c1ccccn1 | 17 |
| COc1ccccc1/C=N/Nc1nnc(N/N=C/c2ccccc2OC)c2ccccc12 | -5 |
| Cn1c(=O)c2c(nc(OCC(C)(C)C)n2C)n(C)c1=O | -13 |
| CSc1nc(N)c2cnn(C3OC(CO)C(O)C3O)c2n1 (stereo unspecified) | -20 |
| CC(C)CCCCCCCCCCCCC(=O)NCC(=O)NC1C(O)C(O)C(Nc2ncnc3nc[nH]c23)OC1C(O)CO (stereo unspecified) | 44 |
| N=C(N)SCc1cc(Cl)cc(Cl)c1O | -5 |
| COc1cccc2c1C(=O)c1c(O)c3c(c(O)c1C2=O)CC(O)(C(C)=O)CC3OC1CC(NCC2(O)OCC(O)C(O)C2O)C(O)C(C)O1 (stereo unspecified) | 62 |
| Oc1c(Br)cc(Br)cc1C=Nc1ccc(Br)cc1 | 88 |
| CCCCCCCOc1ccc(C=O)cc1OC | 1 |
| c1ccc2c(c1)Cc1c-2nc2ccccc2c1N1CCOCC1 | 25 |
| COC(=O)NNc1c([N+](=O)[O-])cnn(-c2ccccc2)c1=O | -11 |
| O=Nc1c(O)c2ccccc2c2ccc([N+](=O)[O-])cc12 | 37 |
| CC(C)(C)OC(=O)NC(Cc1ccc(OCc2ccccc2)cc1)C(=O)NC(CCCCNC(=O)OCc1ccccc1)C(=O)ON1C(=O)CCC1=O (stereo unspecified) (Boc-Tyr(Bn)-Lys(Cbz)-OSu; configuration not given here) | 51 |
| ClC1c2ccccc2Cc2cccnc21 (stereo unspecified) | 8 |
| NC(c1ccccc1)P(=O)(OCc1ccc([N+](=O)[O-])cc1)OCc1ccc([N+](=O)[O-])cc1 (stereo unspecified) | 14 |
| C=C1CC2(OC1=O)C(=O)N(C)c1ccccc12 (stereo unspecified) | -111 |
| NCC(=O)N/N=C/c1ccc([N+](=O)[O-])o1 | 8 |
| CCOC(=O)c1ccc(-n2c(C)nc3ccc(Br)cc3c2=O)cc1 | -2 |

====

- assay_method_text: NCI Yeast Anticancer Drug Screen. Data for the bub3 strain (AID 167)
- condition_notes: S. cerevisiae bub3 mutant strain, at 50.0 µM
This is part of a sample that, as a whole, favours compounds with a hit. Of some 79,000 tested, about 15% had one in any assay. Active and inactive are the calls of the source. No stated cut-off is given here; in the data, active means growth inhibition above about 70%; inactive means the rest.
Outcome codes: active, inactive

| compound | category |
| --- | --- |
| CC(C)OP(=O)(OC(C)C)/C(=N/Nc1ccc([N+](=O)[O-])cc1)NNC(=O)c1ccccc1 | active |
| CCCCCCCCCCCC(C)N (configuration not stated) | active |
| C#CCNC(C)(C)C | active |
| NNC(=O)N/N=C(\CC1(O)C(=O)Nc2c(Cl)ccc(Cl)c21)c1ccc(F)cc1 (configuration not stated) | inactive |
| CC(C)(O)[C@H](CCO)O[Si](c1ccccc1)(c1ccccc1)C(C)(C)C | active |
| O=C(O)CCc1ccc2ccccc2c1 | inactive |
| CN(/N=C/c1ccc([N+](=O)[O-])o1)C(N)=O | inactive |
| COc1ccc2nc3cccc([N+](=O)[O-])c3c(NCCN(C)C)c2c1 | active |
| C=C1C(=O)OC2CC3(C)CC(O)C(O)C(=C)C3CC12 (configuration not stated) | active |
| CCN(CC)C(=S)n1c(=S)nc(N(CC)CC)sc1=S | active |
| O=C(Nc1ccccc1C(=O)O)c1ccccc1 | inactive |
| Cc1c(O)/c(=C\O)c2nc3c(=O)ccc(C(=O)NCCN(C)C)c3[nH]c2c1=O | active |
